Ref: PubChem BioAssay AID192

tested on: BDF1 mice, B16 melanoma ip, median survival T/C; assay: NCI In Vivo Anticancer Drug Screen. Data for tumor model B16 Melanoma (intraperitoneal) in B6D2F1 (BDF1) mice; details: endpoint: median survival time; dose: 200.0 mg/kg/injection; schedule: Q01DX009 (ip); vehicle: saline with Tween-80; higher = longer survival
Inconclusive results and toxic doses are left out. Peptide text beside a SMILES is read from it.
Endpoint Label: T/C

1. CC(=O)OC1CCC(C2CCCCC2)CC1 (centres undefined)
118 % of control
2. CCOC(=O)/C=C/c1ccc2c(c1)OCO2
106 % of control
3. CC(=O)Oc1ccc[nH]c1=O
105 % of control
4. Cc1ccc(S(=O)(=O)N(C)C)cc1N
118 % of control
5. C=CCNc1nc2c(s1)CCc1cc(OC)c(OC)cc1-2
104 % of control
6. O=c1[nH]c(-c2ccccc2)c(-c2ccccc2)[nH]1
95 % of control
7. O=C(O)CCC(=O)CCC(=O)c1ccccc1
93 % of control
8. C/C(=N\NC(N)=O)C1=C(O)C(C(C)C)NC1=O (centres undefined)
91 % of control
9. O=C(c1ccncc1)c1c(Cc2ccccc2)ccc2ccccc12
95 % of control
10. CCNc1nc(NCC)nc(OC)n1
105 % of control
11. Clc1ccc(Sc2ccc(Cl)cc2)cc1
95 % of control
12. CN(C)S(=O)(=O)C(C)(C)c1ccccc1
95 % of control
13. O=C(Nc1ccc(Cl)cc1)Nc1ccccc1F
86 % of control
14. CC1(c2ccccc2)C(C#N)C(=O)NC(=O)C1C#N (centres undefined)
89 % of control
15. CSc1ncc(C#N)c(N)n1
97 % of control
16. CCOC(=O)Nc1nccs1
89 % of control
17. CCCCOC(=O)C(C)OC(=O)Nc1cccc(Cl)c1 (centres undefined)
100 % of control
18. CC(C)CC(NC(=O)C(C)NC(=O)CN)C(=O)O (stereo not drawn) (H-Gly-Ala-Leu-OH; configuration not given here)
98 % of control
19. CC1=C(c2cc3ccccc3c3ccccc23)CCCC1
88 % of control
20. C1CC[N-]CC1.C1CC[N-]CC1.[Cl][Rh]([Cl])[Cl]
96 % of control
21. O=C(O)CCCSc1nc2ccccc2s1
95 % of control
22. CC(=O)SCCCCl
97 % of control
23. CC(=O)CCc1ccc(O)cc1
100 % of control
24. Cn1ccc(=Nc2ccc(NC(=O)c3ccc(N=c4ccn(C)c5ccc([N+](=O)[O-])cc45)cc3[N+](=O)[O-])cc2)cc1
97 % of control
25. Cc1ccc(NC(=O)c2ccccc2Cl)cc1
97 % of control
26. NNC(=O)CCC(=O)NN
104 % of control
27. CC(SC(C)c1ccccc1)c1ccccc1 (centres undefined)
99 % of control
28. Cc1cc(Cl)ccc1NC(=O)c1ccc([N+](=O)[O-])cc1
103 % of control
29. CC(NC(=O)C(C)NC(=O)OC(C)(C)C)C(=O)O (centres undefined)
92 % of control

====

tested on: BDF1 mice, B16 melanoma ip, median survival T/C; assay: NCI In Vivo Anticancer Drug Screen. Data for tumor model B16 Melanoma (intraperitoneal) in B6D2F1 (BDF1) mice; conditions: endpoint: median survival time; dose: 100.0 mg/kg/injection; schedule: Q01DX009 (ip); vehicle: Klucel (hydroxypropylcellulose) (HPC); higher = longer survival
Inconclusive results and toxic doses are left out.
Endpoint Label: T/C

1) COc1ccc(C(C(N)=O)N2CCOCC2)cc1 (stereo not drawn)
87 % of control
2) CC(=O)/C=C/c1ccc(O)cc1
113 % of control
3) COc1c(NC(=O)CC(C)=O)cccc1NC(=O)CC(C)=O
104 % of control
4) CN(CCOc1ccccc1O)CCOc1ccccc1O
111 % of control
5) O=[N+]([O-])/C=C/c1ccc2ccccc2c1
107 % of control
6) COc1ccc(Cl)cc1NC(=O)c1ccccc1C(=O)O
100 % of control
7) O=C1CCCC(=O)C1C(C[N+](=O)[O-])c1ccccc1 (stereo not drawn)
107 % of control
8) CCOc1ccccc1NC(=O)Nc1cccc(Cl)c1
106 % of control
